Test system: Mus musculus
experiment: The ratio of AUC / dose (mM.h/uMol)/kg at 112 mg/kg dose after intravenous administration in mice serum; AUC/Dose (uM)
Format: ADME, organism-based
Set-up: dose 112 mg/kg, route intravenous
assay.conditions: in vivo
observation.type: Ratio
Lab note: record the figure alone, no unit after it.

CNc1ncnc2c1ncn2C1OC(CO)CC1F (configuration not stated) | 0.68

Now, please, on to the next compound.
Enquiry: Output Ratio of Nc1ncnc2c1ncn2[C@@H]1O[C@H](CO)C[C@@H]1F [LODENOSINE]
Return: 0.04
